Kd: recorded values
testedOn: HLA-A*11:01
experimentalProtocol: IEDB peptide-MHC binding, purified MHC/competitive/radioactivity; filed as Kd, often an IC50 or EC50 that approximates it; bounds were set here for any values at or beyond the usual limits of such assays
experimentalParameters: source organism: Vaccinia virus WR
measuredQuantity: Kd

* CFKEASFSKR | ≥ 43.6 µM
* YFSKQTQTY | ≥ 27.5 µM
* ISRDELWAR | ≥ 22.2 µM
* YALINLVQY | ≥ 77.9 µM

Data provenance: the Immune Epitope Database (IEDB)
